ASSAYED_TARGET: SARS-CoV-2 S protein-RBD-mFc (SARS-CoV-2, UniProt P0DTC2 319-537)
Consider the following binders and their measured pKd readings.
Reminder that pKd means the negative base-10 logarithm of the concentration expressed in mol/L.

- BINDER: "HL CV07-262 (antibody, V domains shown) VH: QVQLVQSGAEVKKPGASVKVSCKASGYTFTGYYMHWVRQAPGQGLEWMGWINPNSGGTNYAQTFQGRVTMTRDTSITTTYMELSRLRSDDTAVYYCARVGWYDFGTPGDYYYYYGMDVWGQGTTVTVSS VL: QSALTQPASVSGSPGQSITISCTGTSSDVGSYNLVSWYQQHPGKAPKLMIYEGSKRPSGVSNRFSGSKSGNTASLTISGLQAEDEADYFCCSYAGTSTFVFGTGTKVTVLG"
  ENDPOINT: "pKd"
  READING: 10.10
- BINDER: "HL CV07-222 (antibody, V domains shown) VH: QVQLVQSGAEVKKPGASVKVSCKASGYTFTDYYVHWVRQAPGQGLEWMGWINPISGGTNYAQKFQGRVTMTRDTSISTAYMELSRLRSDDTAVYYCARGPYYYDSSGSLGAFDIWGQGTMVTVSS VL: QSALTQPASVSGSPGQSITISCTGTSSDVGSYNLVSWYQQHPGKAPKLMIYEGSKRPSGVSNRFSGSKSGNTASLTISGLQAEDEAHYYCCSYAGGSTSYVFGTGTKVTVLG"
  ENDPOINT: "pKd"
  READING: 11.16
- BINDER: "HL CV07-283 (antibody, V domains shown) VH: QVQLVQSGAEVKKPGASAKVSCKASGYTFTGYYIHWVRQAPGQGLEWMGLINPISGGTNYAQKFQDRVTMTRDTSISTAYMELSRLRSDDTAVYYCVRGPFYYDSSGPLGGMDVWGQGTTVTVSS VL: QSALTQPASVSGSPGQSITISCTGTSGDVGGYNYVSWYQQHPGKAPKLMIYEVSNRPSGVSNRFSGSKSGNTASLTISGLQAEDEADYYCSSYTSSSTYVFGTGTKVTVLG"
  ENDPOINT: "pKd"
  READING: 10.32

Return reported pKd; argument: HL CV07-315 (antibody, V domains shown) VH: EVQLVESGGGLVQPGRSLRLSCAASGFTFDDYAMHWVRQAPGKGLEWVSGISWNSGSIGYADSVKGRFTISRDNAKNSLYLQMNSLRAEDTALYYCAKDFLWDLHPPRYYGMDVWGQGTTVTVSS VL: QSVLTRPPSVSAAPGQKVTISCSGSSSNIGNNYVSWYQQLPGTAPKLLIYENNKRPSGIPDRFSGSKSGTSATLGITGLQTGDEADYYCGTWDSSLNGVFGGGTKLTVLG 10.95

Now the binder HL CV07-250 (antibody, V domains shown) VH: QVQLVQSEAEVKEPGASVEVSCKASGYNFTNFAISWVRQAPGQGLEWMGWISGYNGDTNSAQKFLGRVTMTTDTSTTTAYMELRSLRSDDTAVYYCAGSDNYGFPYNGMDVWGQGTTVTVSS VL: QSALTQPPSASGSPGQSVTISCTGTSSDLGAYHFVTWYQHYPGKAPKVMIYGVRKRPSGVPDRFSGSKSGNTASLTVSGLQDEDEADYYCSSYAGNNDFVFGGGTKLTVLS 10.25
